# measured target: Protein farnesyltransferase (Homo sapiens, UniProt P49354+P49356)
# assay: Inhibition of recombinant FTase (unknown origin) by spectrofluorimetric analysis
parameter: IC50 (µM)

a. CSCC[C@H](NC(=O)c1ccc(NC(=O)Cc2csc(N)n2)cc1-c1ccoc1)C(=O)O
b. CSCC[C@H](NC(=O)c1ccc(OCC2COc3ccccc3O2)cc1-c1ccsc1)C(=O)O (some centres not stated)
Just tell me: smaller IC50 value, a or b ? # answer = label of selected item
a
(a: 2.8 µM, b: 5 µM)

----------
# measured target: Protein farnesyltransferase (Homo sapiens, UniProt P49354+P49356)
# assay: Inhibition of recombinant FTase (unknown origin) at 20 uM by spectrofluorimetric analysis relative to control
# Format: protein-complex assay
parameter: inhibition (%)

Example cases with answers are listed next.
compound | inhibition / %
CSCC[C@H](NC(=O)c1ccc(OCC2COc3ccccc3O2)cc1-c1ccco1)C(=O)O (some centres not stated) | 51.5
CSCC[C@H](NC(=O)c1ccc(NC(=O)Cc2csc(N)n2)cc1-c1cncc2ccccc12)C(=O)O | 0
CSCC[C@H](NC(=O)c1ccc(OCC2COc3ccccc3O2)cc1-c1cccc2ccccc12)C(=O)O (some centres not stated) | 41.7
CSCC[C@H](NC(=O)c1ccc(NC(=O)Cc2csc(N)n2)cc1-c1ccsc1)C(=O)O | 20.9
CSCC[C@H](NC(=O)c1ccc(OCC2COc3ccccc3O2)cc1-c1cccs1)C(=O)O (some centres not stated) | 90

1. CSCC[C@H](NC(=O)c1ccc(NC(=O)Cc2csc(N)n2)cc1-c1ccco1)C(=O)O
2. CSCC[C@H](NC(=O)c1ccc(OCC2COc3ccccc3O2)cc1-c1ccoc1)C(=O)O (some centres not stated)
Lowest inhibition? choose 1 or 2 Which one? Tell me its label.
1

A. CSCC[C@H](NC(=O)c1ccc(NC(=O)Cc2csc(N)n2)cc1-c1cccs1)C(=O)O
B. CSCC[C@H](NC(=O)c1ccc(NC(=O)Cc2csc(N)n2)cc1-c1ccoc1)C(=O)O
Among A and B , which shows a numerically higher inhibition result? Please identify the chosen entry by its label.
B

----------
# measured target: Protein farnesyltransferase (Homo sapiens, UniProt P49354+P49356)
# assay: Inhibition of recombinant FTase (unknown origin) at 20 uM by spectrofluorimetric analysis relative to control
# Assay type: protein-complex assay
parameter: inhibition (%)

molecule | inhibition / %
CSCC[C@H](NC(=O)c1ccc(OCC2COc3ccccc3O2)cc1-c1ccsc1)C(=O)O (stereo partly drawn) | 96.6

a. CSCC[C@H](NC(=O)c1ccc(NC(=O)Cc2csc(N)n2)cc1-c1cccc2ccccc12)C(=O)O
b. CSCC[C@H](NC(=O)c1ccc(OCC2COc3ccccc3O2)cc1-c1cncc2ccccc12)C(=O)O (stereo partly drawn)
Could you point out whether the larger inhibition belongs to a or to b ? Give the label of your selection.
a
